// reported Elimination rate constant (k) for each item listed
test: Stability in human liver microsomes; format: in vitro ADME; conditions: 1 μM compound, 1 mg/mL microsomal protein
Reported Endpoint: Elimination rate constant (k)

| Compound | Reported Endpoint | Numeric Value |
| --- | --- | --- |
| COC(=O)N[C@H](C(=O)N1CCC[C@H]1c1ncc(-c2ccc(-c3ccc(-c4cnc([C@@H]5CCCN5C(=O)[C@@H](NC(=O)OC)C(C)C)[nH]4)cc3)cc2)[nH]1)C(C)C [BMS-790052] | Elimination rate constant (k) | 0.012 |
| COC(=O)N[C@H](C(=O)N1CCC[C@H]1c1nc(Cl)c(-c2ccc(-c3ccc(-c4[nH]c([C@@H]5CCCN5C(=O)[C@@H](NC(=O)OC)C(C)C)nc4Cl)cc3)cc2)[nH]1)C(C)C [Compound 5b] | Elimination rate constant (k) | 0.0058 |
| COC(=O)N[C@H](C(=O)N1CCC[C@H]1c1nc(Br)c(-c2ccc(-c3ccc(-c4[nH]c([C@@H]5CCCN5C(=O)[C@@H](NC(=O)OC)C(C)C)nc4Br)cc3)cc2)[nH]1)C(C)C [Compound 5a] | Elimination rate constant (k) | 0.01 |
| COC(=O)N[C@H](C(=O)N1CCC[C@H]1c1nc(I)c(-c2ccc(-c3ccc(-c4[nH]c([C@@H]5CCCN5C(=O)[C@@H](NC(=O)OC)C(C)C)nc4I)cc3)cc2)[nH]1)C(C)C [Compound 5c] | Elimination rate constant (k) | 0.018 |
| COC(=O)N[C@H](C(=O)N1CCC[C@H]1c1nc(F)c(-c2ccc(-c3ccc(-c4[nH]c([C@@H]5CCCN5C(=O)[C@@H](NC(=O)OC)C(C)C)nc4F)cc3)cc2)[nH]1)C(C)C [Compound 5d] | Elimination rate constant (k) | 0.0056 |
